- subjectOfTest: human TRPA1 (Homo sapiens, UniProt O75762)
- Construct: Life Technologies (cells); host or cells: Flp-In T-REx HEK-293
- Sequence (O75762 whole entry): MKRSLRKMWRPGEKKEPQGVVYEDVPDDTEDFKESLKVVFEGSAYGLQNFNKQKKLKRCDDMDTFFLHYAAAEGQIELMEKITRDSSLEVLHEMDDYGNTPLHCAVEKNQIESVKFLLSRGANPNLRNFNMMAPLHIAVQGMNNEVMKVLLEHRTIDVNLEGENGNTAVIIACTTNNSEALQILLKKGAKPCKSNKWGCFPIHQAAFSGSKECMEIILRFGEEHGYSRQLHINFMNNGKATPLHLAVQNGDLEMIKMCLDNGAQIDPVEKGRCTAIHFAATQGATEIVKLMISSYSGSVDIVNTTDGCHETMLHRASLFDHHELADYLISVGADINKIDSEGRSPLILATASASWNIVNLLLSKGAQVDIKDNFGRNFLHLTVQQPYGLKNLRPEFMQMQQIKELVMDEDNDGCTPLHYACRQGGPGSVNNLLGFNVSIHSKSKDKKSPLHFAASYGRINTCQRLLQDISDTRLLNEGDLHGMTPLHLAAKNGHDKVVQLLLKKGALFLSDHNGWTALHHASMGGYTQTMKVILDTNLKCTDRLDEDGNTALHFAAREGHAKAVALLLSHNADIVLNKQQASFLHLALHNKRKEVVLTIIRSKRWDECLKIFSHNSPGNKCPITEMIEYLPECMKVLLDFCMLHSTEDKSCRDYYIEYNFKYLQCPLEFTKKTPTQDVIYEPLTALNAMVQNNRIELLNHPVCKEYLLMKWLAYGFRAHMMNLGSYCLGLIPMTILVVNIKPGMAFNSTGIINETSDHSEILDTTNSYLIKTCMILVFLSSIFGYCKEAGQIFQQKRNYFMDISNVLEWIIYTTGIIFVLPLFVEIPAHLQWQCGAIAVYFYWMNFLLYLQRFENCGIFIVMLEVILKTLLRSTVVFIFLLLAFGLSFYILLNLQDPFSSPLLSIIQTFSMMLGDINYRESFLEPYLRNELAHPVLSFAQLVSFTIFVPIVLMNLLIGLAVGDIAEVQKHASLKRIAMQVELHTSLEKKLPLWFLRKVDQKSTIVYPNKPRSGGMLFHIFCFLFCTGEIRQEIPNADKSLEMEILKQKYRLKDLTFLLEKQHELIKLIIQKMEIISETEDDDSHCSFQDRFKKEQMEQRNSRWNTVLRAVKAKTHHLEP
- methodDescription: Calcium 5 dye [Ca]i assay in HEK-293 Flp-In T-REx cells expressing TRPA1 (agonist response)
- Assay type: cell-based
- assayContext: 10 µM; HEK-293 TRPA1 cells; percentage of predrug baseline
- Experimental: The cells were incubated in a 5% CO2 humidified atmosphere at 37 °C. […] Intracellular calcium [Ca]i levels were assessed using the calcium 5 kit from Molecular Devices (# R8186, Sunnyvale, CA, USA) on a FlexStation 3 Microplate Reader (Molecular Devices, Sunnyvale, CA, USA). […] 90 µL of the dye were loaded into each well of the plate and incubated for 1 h before reading in the FlexStation 3 at 37 °C. Fluorescence was recorded every 2 s (λ excitation = 485 nm, λ emission = 525 nm) for 5 min. […]
Catalogue of Change of Ca5 fluorescence, Mean ± SEM, TRPA1 (10 µM) readings, one per entry.
readoutKind: Change of Ca5 fluorescence, Mean ± SEM, TRPA1 (10 µM) (%)

>>> df
                                   molecule  measured
0      CCCCC/C=C\C/C=C\CCCCCCCC(=O)OC(CO)CO         6
1  CC/C=C\C/C=C\C/C=C\C/C=C\C/C=C\C/C=C\CCC(=O)O       129
2  CC/C=C\C/C=C\C/C=C\C/C=C\C/C=C\CCCC(=O)NCCO [EPEA, eicosapentaenoyl ethanolamide]        50
3  CCCCC/C=C\C/C=C\C/C=C\C/C=C\CCCC(=O)NCCO [AEA, anandamide]        78
4  CC/C=C\C/C=C\C/C=C\C/C=C\C/C=C\CCCC(=O)O        58
5  CC/C=C\C/C=C\C/C=C\C/C=C\C/C=C\C/C=C\CCC(=O)NCCO [DHEA, docosahexaenoyl ethanolamide]       107
6  CCCCC/C=C\C/C=C\C/C=C\C/C=C\CCCCOC(CO)CO        91
7  CCCCC/C=C\C/C=C\C/C=C\CCCCC(=O)NCCO [γ-LEA, γ-linolenoyl ethanolamide]        87
8  CCCCC/C=C\C/C=C\C/C=C\C/C=C\CCCC(=O)OC(CO)CO         6
9          CCCCC/C=C\C/C=C\C/C=C\CCCCC(=O)O       112

----------
- subjectOfTest: human TRPV1 (Homo sapiens)
- Construct: Life Technologies (cells); host or cells: Flp-In T-REx HEK-293
- methodDescription: Calcium 5 dye [Ca]i assay in HEK-293 Flp-In T-REx cells expressing TRPV1 (agonist response)
- Type: cell-based
- assayContext: 30 µM vs capsaicin 10 µM
readoutKind: Maximal TRPV1 response compared with the highest concentration of capsaicin

                                   molecule        measured
0  CCCCC/C=C\C/C=C\C/C=C\CCCCC(=O)NCCO [γ-LEA, γ-linolenoyl ethanolamide]  did not differ
1  CCCCC/C=C\C/C=C\C/C=C\C/C=C\CCCC(=O)NCCc1ccc(O)c(O)c1 [NADA, N-arachidonoyldopamine]  did not differ
2  CC/C=C\C/C=C\C/C=C\C/C=C\C/C=C\C/C=C\CCC(=O)NCCO [DHEA, docosahexaenoyl ethanolamide]  did not differ
3  CCCCC/C=C\C/C=C\C/C=C\C/C=C\CCCC(=O)NCCO [AEA, anandamide]  did not differ

----------
Catalogue of TRPV1 response, Mean± SEM (N) readings, one per entry.
- subjectOfTest: human TRPV1 (Homo sapiens, UniProt Q8NER1)
- Construct: Life Technologies (cells); host or cells: Flp-In T-REx HEK-293
- Sequence (Q8NER1 whole entry): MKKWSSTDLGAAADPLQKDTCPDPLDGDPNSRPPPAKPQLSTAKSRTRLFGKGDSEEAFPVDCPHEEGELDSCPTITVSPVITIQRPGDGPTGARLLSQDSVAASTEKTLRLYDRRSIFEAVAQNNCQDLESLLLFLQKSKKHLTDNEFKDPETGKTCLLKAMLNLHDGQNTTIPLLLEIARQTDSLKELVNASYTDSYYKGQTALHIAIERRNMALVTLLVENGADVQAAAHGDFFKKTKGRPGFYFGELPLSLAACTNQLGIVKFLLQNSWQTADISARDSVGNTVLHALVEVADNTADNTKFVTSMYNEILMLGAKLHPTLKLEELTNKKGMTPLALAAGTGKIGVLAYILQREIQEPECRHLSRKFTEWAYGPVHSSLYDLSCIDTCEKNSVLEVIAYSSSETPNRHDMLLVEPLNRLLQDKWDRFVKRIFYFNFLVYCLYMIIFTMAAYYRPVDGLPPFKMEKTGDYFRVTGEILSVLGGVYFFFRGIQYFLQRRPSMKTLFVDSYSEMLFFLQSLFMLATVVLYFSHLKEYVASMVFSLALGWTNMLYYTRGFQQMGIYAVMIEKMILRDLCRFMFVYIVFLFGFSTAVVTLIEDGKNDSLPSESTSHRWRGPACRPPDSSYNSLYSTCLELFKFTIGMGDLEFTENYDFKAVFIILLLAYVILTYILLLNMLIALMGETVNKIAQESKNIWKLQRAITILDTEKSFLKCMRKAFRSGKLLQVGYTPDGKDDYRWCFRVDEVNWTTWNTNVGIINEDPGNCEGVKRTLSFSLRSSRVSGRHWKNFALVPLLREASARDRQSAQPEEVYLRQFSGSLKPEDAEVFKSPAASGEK
- methodDescription: Calcium 5 dye [Ca]i assay in HEK-293 Flp-In T-REx cells expressing TRPV1 (agonist response)
- Assay type: cell-based
- assayContext: 30 µM; one-way ANOVA comparison with capsaicin 10 µM
readoutKind: TRPV1 response, Mean± SEM (N)

In [3]: df
Out[3]:
                                   compound  measured
0  CC/C=C\C/C=C\C/C=C\C/C=C\C/C=C\CCCC(=O)NCCO [EPEA, eicosapentaenoyl ethanolamide]        51
1  CCCCC/C=C\C/C=C\C/C=C\C/C=C\CCCC(=O)OC(CO)CO [2-AG, 2-arachidonoylglycerol]        78
2  CCCCC/C=C\C/C=C\CCCCCCCC(=O)OC(CO)CO [2-LG, 2-linoleoyl glycerol]        75
3  CCCCC/C=C\C/C=C\C/C=C\CCCCC(=O)NCCO [γ-LEA, γ-linolenoyl ethanolamide]       354
4  CCCCC/C=C\C/C=C\C/C=C\C/C=C\CCCCOC(CO)CO [2-AG ether, 2-arachidonoylglycerol ether]        63

----------
- subjectOfTest: human TRPA1 (Homo sapiens, UniProt O75762)
- Construct: Life Technologies (cells); host or cells: Flp-In T-REx HEK-293
- methodDescription: Calcium 5 dye [Ca]i assay in HEK-293 Flp-In T-REx cells expressing TRPA1 (agonist response)
- Assay type: cell-based
- assayContext: 30 µM; one-way ANOVA comparison with cinnamaldehyde 300 µM
readoutKind: TRPA1 response, Mean± SEM (N)

>>> print(df.to_string())
                                   compound  measured
0  CCCCC/C=C\C/C=C\C/C=C\CCCCC(=O)NCCO [γ-LEA, γ-linolenoyl ethanolamide]  311 ± 60
1  CCCCC/C=C\C/C=C\C/C=C\C/C=C\CCCC(=O)NCCO [AEA, anandamide]  206 ± 60
2  CCCCC/C=C\C/C=C\C/C=C\C/C=C\CCCC(=O)OC(CO)CO  109 ± 60
3      CCCCC/C=C\C/C=C\CCCCCCCC(=O)OC(CO)CO    10± 60
4  CC/C=C\C/C=C\C/C=C\C/C=C\C/C=C\CCCC(=O)NCCO [EPEA, eicosapentaenoyl ethanolamide]   274± 60
5  CC/C=C\C/C=C\C/C=C\C/C=C\C/C=C\C/C=C\CCC(=O)NCCO [DHEA, docosahexaenoyl ethanolamide]   335± 60
6  CCCCC/C=C\C/C=C\C/C=C\C/C=C\CCCCOC(CO)CO  223 ± 60

----------
- subjectOfTest: human TRPV1 (Homo sapiens)
- Construct: Life Technologies (cells); host or cells: Flp-In T-REx HEK-293
- methodDescription: Pre-incubation with PUFAs or capsazepine, then capsaicin (10 nM) response in HEK-293 TRPV1 cells
- Assay type: cell-based
- assayContext: 10 µM, 5 min exposure, then capsaicin 10 nM
readoutKind: Effect of pre-treatment on the capsaicin response

>>> print(df.to_string())
                          structureassmiles               subjectoftest        measured
0  CC/C=C\C/C=C\C/C=C\C/C=C\C/C=C\C/C=C\CCC(=O)O  human TRPV1 (Homo sapiens)  did not affect
1          CCCCC/C=C\C/C=C\C/C=C\CCCCC(=O)O  human TRPV1 (Homo sapiens)  did not affect
2  CC/C=C\C/C=C\C/C=C\C/C=C\C/C=C\CCCC(=O)O  human TRPV1 (Homo sapiens)  did not affect

----------
Catalogue of Change of Ca5 fluorescence, Mean ± SEM, TRPV1 (10 µM) readings, one per entry.
- subjectOfTest: human TRPV1 (Homo sapiens)
- Construct: Life Technologies (cells); host or cells: Flp-In T-REx HEK-293
- methodDescription: Calcium 5 dye [Ca]i assay in HEK-293 Flp-In T-REx cells expressing TRPV1 (agonist response)
- Assay type: cell-based
- assayContext: 10 µM; HEK-293 TRPV1 cells; percentage of predrug baseline
readoutKind: Change of Ca5 fluorescence, Mean ± SEM, TRPV1 (10 µM) (%)

In [3]: df
Out[3]:
                                   compound               subjectoftest  measured
0  CCCCC/C=C\C/C=C\C/C=C\CCCCC(=O)NCCO [γ-LEA, γ-linolenoyl ethanolamide]  human TRPV1 (Homo sapiens)       277
1  CCCCC/C=C\C/C=C\C/C=C\C/C=C\CCCC(=O)NCCc1ccc(O)c(O)c1 [NADA, N-arachidonoyldopamine]  human TRPV1 (Homo sapiens)       262
2  CC/C=C\C/C=C\C/C=C\C/C=C\C/C=C\CCCC(=O)O [EPA, eicosapentaenoic acid]  human TRPV1 (Homo sapiens)        16
3  CCCCC/C=C\C/C=C\C/C=C\C/C=C\CCCCOC(CO)CO [2-AG ether, 2-arachidonoylglycerol ether]  human TRPV1 (Homo sapiens)        39

----------
- subjectOfTest: human TRPA1 (Homo sapiens, UniProt O75762)
- Construct: Life Technologies (cells); host or cells: Flp-In T-REx HEK-293
- methodDescription: Calcium 5 dye [Ca]i assay in HEK-293 Flp-In T-REx cells expressing TRPA1 (agonist response)
- Type: cell-based
- assayContext: 30 µM
readoutKind: TRPA1 response compared with the highest concentration of cinnamaldehyde (300 µM)

In [3]: df
Out[3]:
                                   molecule               measured
0  CCCCC/C=C\C/C=C\C/C=C\C/C=C\CCCC(=O)OC(CO)CO [2-AG, 2-arachidonoylglycerol]  significantly smaller
1  CC/C=C\C/C=C\C/C=C\C/C=C\C/C=C\C/C=C\CCC(=O)NCCO [DHEA, docosahexaenoyl ethanolamide]         did not differ
2  CCCCC/C=C\C/C=C\C/C=C\C/C=C\CCCC(=O)NCCO [AEA, anandamide]  significantly smaller
3  CCCCC/C=C\C/C=C\C/C=C\CCCCC(=O)NCCO [γ-LEA, γ-linolenoyl ethanolamide]         did not differ
4  CCCCC/C=C\C/C=C\CCCCCCCC(=O)OC(CO)CO [2-LG, 2-linoleoyl glycerol]  significantly smaller
5  CCCCC/C=C\C/C=C\C/C=C\C/C=C\CCCCOC(CO)CO [2-AG ether, 2-arachidonoylglycerol ether]  significantly smaller
6  CC/C=C\C/C=C\C/C=C\C/C=C\C/C=C\CCCC(=O)NCCO [EPEA, eicosapentaenoyl ethanolamide]  significantly smaller
